Cited source for all entries: patent US20240109853A1

Tested on: ALPK1-dependent NFκB reporter gene activation in HEK293 cells stably expressing an NF-kB reporter (G9 cells)
ASSAY METHOD TEXT: NFκB gene reporter alkaline phosphatase assay
Format: cell-based
CONDITION DETAILS: Homo sapiens, HEK293; read-out: NFkB assay IC50
pIC50: −log10 of the molar value.
# label = Condition met if pIC50 >= 6 else Condition not met

These recorded examples may help you get a feel for the data.
{"columns": ["MOLECULE", "CAT"],
 "data": [
  ["COc1ccc(C(C)(C)c2csc(NC(=O)NCc3cncnc3)n2)cc1", "Condition not met"],
  ["CC(C)(c1ccc(Br)cc1)c1csc(NC(=O)NCCCN2CCC(O)C2)n1 (centres unmarked)", "Condition met"]
]}

QUERY: API: above_or_equal(metric=pIC50, cutoff=6) for item `C#C[C@@](C)(c1ccc(Cl)cc1)c1nc(NC(=O)NCCO)sc1Cl`
RESULT: Condition not met

QUERY: API: above_or_equal(metric=pIC50, cutoff=6) for item `CC(C)(c1ccc(Br)c(F)c1)c1csc(NC(=O)NCc2cnc(N3CCNCC3)nc2)n1`
RESULT: Condition not met

QUERY: API: above_or_equal(metric=pIC50, cutoff=6) for item `COc1ccc(C(C)(C)c2csc(NC(=O)NCCCCNc3ccccc3)n2)cc1`
RESULT: Condition not met

----------
TARGET UNDER TEST: ALPK1 (Homo sapiens (Human), UniProt Q96QP1)
Sequence (Q96QP1 whole entry): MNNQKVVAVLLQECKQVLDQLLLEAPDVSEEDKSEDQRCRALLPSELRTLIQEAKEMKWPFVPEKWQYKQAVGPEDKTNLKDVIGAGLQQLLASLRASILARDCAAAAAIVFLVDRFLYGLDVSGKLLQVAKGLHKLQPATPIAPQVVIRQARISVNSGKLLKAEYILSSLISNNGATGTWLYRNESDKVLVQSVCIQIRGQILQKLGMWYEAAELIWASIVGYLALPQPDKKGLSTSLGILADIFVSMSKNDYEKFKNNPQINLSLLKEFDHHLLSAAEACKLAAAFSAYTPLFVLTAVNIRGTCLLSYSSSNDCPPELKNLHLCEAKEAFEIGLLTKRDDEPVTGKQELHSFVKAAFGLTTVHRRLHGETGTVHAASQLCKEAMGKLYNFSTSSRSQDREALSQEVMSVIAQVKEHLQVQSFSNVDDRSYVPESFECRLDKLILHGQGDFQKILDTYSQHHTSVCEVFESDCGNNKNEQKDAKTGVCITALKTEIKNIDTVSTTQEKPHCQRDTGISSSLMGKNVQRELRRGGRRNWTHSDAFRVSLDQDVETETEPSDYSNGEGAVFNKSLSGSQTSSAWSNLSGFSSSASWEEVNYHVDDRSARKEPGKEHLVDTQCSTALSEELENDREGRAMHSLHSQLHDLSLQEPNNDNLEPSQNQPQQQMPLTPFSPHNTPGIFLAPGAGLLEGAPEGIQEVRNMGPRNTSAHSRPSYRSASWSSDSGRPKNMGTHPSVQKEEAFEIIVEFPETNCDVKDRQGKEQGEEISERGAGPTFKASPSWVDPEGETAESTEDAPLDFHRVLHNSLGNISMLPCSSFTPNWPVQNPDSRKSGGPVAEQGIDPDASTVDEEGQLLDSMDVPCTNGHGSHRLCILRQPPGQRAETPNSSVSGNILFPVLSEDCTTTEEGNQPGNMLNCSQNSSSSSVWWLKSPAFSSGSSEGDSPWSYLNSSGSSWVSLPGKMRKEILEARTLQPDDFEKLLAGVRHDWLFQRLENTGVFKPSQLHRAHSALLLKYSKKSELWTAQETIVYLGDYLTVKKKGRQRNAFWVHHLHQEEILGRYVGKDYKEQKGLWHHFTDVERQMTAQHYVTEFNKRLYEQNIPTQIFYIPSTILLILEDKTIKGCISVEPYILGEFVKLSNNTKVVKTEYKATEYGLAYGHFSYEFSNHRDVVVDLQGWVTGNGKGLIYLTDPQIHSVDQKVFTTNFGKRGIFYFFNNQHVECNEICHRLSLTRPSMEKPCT
ASSAY METHOD TEXT: ALPK1 in vitro kinase assay (HTRF of TIFA phosphorylation)
Format: biochemical
CONDITION DETAILS: ALPK1 2 nM, TIFA substrate, ADP-Heptose activator, HTRF readout
Output yes (1) for records whose IC50 is lower than 200 nM, no (0) for records at or above 200 nM.

{"columns": ["COMPOUND", "TARGET UNDER TEST", "CAT"],
 "data": [
  ["COc1ccc(C(C)(C)c2csc(NC(=O)c3ccc(N4CCC(N(C)C)C4)nc3)n2)cc1 (centres unmarked)", "ALPK1 (Homo sapiens (Human), UniProt Q96QP1)", "yes (1)"],
  ["COc1ccc(C(C)(C)c2csc(NC(=O)c3ccc(N4CCNCC4)nc3)n2)cc1", "ALPK1 (Homo sapiens (Human), UniProt Q96QP1)", "yes (1)"],
  ["COc1ccc(C(C)(C)c2csc(NC(=O)c3ccc(OCC(C)O)cc3)n2)cc1 (centres unmarked)", "ALPK1 (Homo sapiens (Human), UniProt Q96QP1)", "no (0)"],
  ["C#CC(C)(c1ccc(Br)cc1)c1csc(NC(=O)[C@H]2C[C@@H](CO)C2)n1 (mixture of isomers)", "ALPK1 (Homo sapiens (Human), UniProt Q96QP1)", "yes (1)"],
  ["COc1ccc(C(C)(C)c2csc(NC(=O)c3cccc(CN4CCNCC4)c3)n2)cc1", "ALPK1 (Homo sapiens (Human), UniProt Q96QP1)", "no (0)"],
  ["C#CC(C)(c1ccc(Cl)cc1)c1csc(NC(=O)c2ccc(N3CCNCC3)nc2)n1 (centres unmarked)", "ALPK1 (Homo sapiens (Human), UniProt Q96QP1)", "yes (1)"],
  ["CC(C)(c1ccc(F)cc1)c1csc(NC(=O)c2c(F)cc(N3CCNCC3)cc2F)n1", "ALPK1 (Homo sapiens (Human), UniProt Q96QP1)", "yes (1)"]
]}

Here is the next item to consider.
QUERY: Is IC50 of C#C[C@](C)(c1ccc(F)cc1)c1csc(NC(=O)c2ccc(N3CCNCC3CO)cc2)n1 (stereo in doubt) [Example B072] strictly below 200 nM?
RESULT: no (0)
